These data points were gathered from patent US20170321218A1.

- target_of_assay: Factor XIa (FXIa) (UniProt P03951;P03951 P03951:19-387,P03951:388-625)
- Sequence (P03951 19-387, chain 1 of 2): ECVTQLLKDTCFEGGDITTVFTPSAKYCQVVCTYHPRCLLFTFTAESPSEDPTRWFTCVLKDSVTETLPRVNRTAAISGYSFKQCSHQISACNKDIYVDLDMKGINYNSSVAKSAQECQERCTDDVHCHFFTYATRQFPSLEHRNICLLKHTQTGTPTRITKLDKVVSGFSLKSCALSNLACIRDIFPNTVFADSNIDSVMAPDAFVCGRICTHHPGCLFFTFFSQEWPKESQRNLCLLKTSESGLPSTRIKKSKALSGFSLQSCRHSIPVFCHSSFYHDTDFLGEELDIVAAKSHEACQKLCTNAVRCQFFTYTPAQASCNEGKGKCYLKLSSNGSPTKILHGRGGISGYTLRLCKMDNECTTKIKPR
- Sequence (P03951 388-625, chain 2 of 2): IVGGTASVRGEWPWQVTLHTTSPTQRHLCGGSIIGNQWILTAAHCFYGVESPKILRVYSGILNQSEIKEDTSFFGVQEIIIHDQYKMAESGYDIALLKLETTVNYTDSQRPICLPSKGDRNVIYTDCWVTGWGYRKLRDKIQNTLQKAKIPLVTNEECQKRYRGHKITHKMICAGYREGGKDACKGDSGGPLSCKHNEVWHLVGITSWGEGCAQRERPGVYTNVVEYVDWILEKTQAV
- test_details: SPR; ±0.1 nM; ka 5.2e4 M-1s-1, kd 9.5e-5 s-1; 100 mM HEPES pH 7.4, 150 mM NaCl, 0.01% Tween 20, 25 C; SCRAPT reference cell subtracted
- protocol_conditions: chain copies: 2,2; label: 3'-biotin; predicted stem-loop hairpin with bulge and two small loops
readout_kind: Kd (nM)
Provide the reading as a plain figure in nM.

Request: # lookup: Kd of FELIAP 3'-biotin (ssDNA) DNA: GAATTCTAATACGACTCACTATAAACCTATCGGACTATTGTTAGTGATTTTTATAGTGTGCGTCCAACACATCG
Response: 1.8
